Every entry's value here was drawn from patent US20160257732A1.

Biological target: HA of ca A/Vietnam/1203/04 (H5N1) (influenza A virus)
Experiment: cell-based or functional assay
Experimental endpoint: Neutralization IC50, H5-VM04 (µg/mL)
Give the value in µg/mL but do not write µg/mL after it.

(Q) Give the measured Neutralization IC50, H5-VM04 for Antibody 8 (antibody, V domains shown) VH: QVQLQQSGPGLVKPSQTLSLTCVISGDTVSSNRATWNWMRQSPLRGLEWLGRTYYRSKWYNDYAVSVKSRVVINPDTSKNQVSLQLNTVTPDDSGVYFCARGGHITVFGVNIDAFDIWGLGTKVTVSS VL: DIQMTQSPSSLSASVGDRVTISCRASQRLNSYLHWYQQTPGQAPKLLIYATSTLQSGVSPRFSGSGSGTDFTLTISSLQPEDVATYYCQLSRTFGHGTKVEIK
(A) 3.9

(Q) Give the measured Neutralization IC50, H5-VM04 for Antibody 6 (antibody, V domains shown) VH: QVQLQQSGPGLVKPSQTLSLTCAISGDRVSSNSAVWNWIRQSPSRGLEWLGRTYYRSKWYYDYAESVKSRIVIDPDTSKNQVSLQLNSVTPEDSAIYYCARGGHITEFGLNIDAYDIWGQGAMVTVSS VL: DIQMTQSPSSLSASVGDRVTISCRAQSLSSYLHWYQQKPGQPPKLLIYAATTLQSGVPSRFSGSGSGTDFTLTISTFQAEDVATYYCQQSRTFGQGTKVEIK
(A) 8.87

(Q) Give the measured Neutralization IC50, H5-VM04 for Antibody 10 (antibody, V domains shown) VH: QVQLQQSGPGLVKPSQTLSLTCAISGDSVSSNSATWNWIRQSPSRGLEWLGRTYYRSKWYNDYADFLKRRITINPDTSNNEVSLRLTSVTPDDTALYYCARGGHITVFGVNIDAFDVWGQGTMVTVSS VL: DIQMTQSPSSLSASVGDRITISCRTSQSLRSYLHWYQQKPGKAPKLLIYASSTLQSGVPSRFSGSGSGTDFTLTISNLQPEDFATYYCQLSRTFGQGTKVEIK
(A) 2.21

(Q) Give the measured Neutralization IC50, H5-VM04 for Antibody 3 (antibody, V domains shown) VH: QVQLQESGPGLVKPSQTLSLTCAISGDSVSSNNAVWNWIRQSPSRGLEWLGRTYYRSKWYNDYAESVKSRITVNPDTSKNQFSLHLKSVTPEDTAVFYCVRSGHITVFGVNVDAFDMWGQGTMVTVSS VL: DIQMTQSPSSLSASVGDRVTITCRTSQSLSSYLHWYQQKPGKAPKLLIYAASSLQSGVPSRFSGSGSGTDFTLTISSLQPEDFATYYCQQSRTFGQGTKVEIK
(A) 2.11
